targetUnderTest: T1, NPY2 receptor (human (printed as hNPY2R), UniProt P49146 1-381)
T1 sequence (looked up): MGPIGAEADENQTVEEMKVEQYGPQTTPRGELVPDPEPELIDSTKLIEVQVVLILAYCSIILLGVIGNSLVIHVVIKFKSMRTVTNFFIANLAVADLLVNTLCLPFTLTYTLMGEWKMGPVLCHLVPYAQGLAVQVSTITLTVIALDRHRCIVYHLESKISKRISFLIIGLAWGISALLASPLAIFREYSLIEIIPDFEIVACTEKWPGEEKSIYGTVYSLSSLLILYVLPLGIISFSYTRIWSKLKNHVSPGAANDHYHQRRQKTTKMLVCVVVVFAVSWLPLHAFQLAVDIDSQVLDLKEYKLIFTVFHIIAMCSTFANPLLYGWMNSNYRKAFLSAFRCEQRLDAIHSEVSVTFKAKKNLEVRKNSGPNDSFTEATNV
protocolSummary: cell-based or functional assay
Non-standard residues stand in square brackets, D forms with d. No end group written: not given here. Aib = CC(C)(N)C(=O)O
Each entry below carries its recorded EC50 hNPY2R 0.5% hP (CreLuc).

# binder, EC50 hNPY2R 0.5% hP (CreLuc)
measured = [
    ("YXEGTFTSDYSIXLEKQAQXAFVEWLIKGGPSSGASLRHYYNWRTRQRY (Aib at 2, 13, 20; D-Arg at 44; K28 side chain carries C20DA-gGlu-gGlu-gGlu-gGlu-Glu-gGlu-eLys (so in the source); C-terminal amide) [Compound 190]", "> 100 nM"),
    ("YXEGTFTSDYSIXLEKQAQXAFVEWLIKGGPSSGASLRHYYXWLTRQRY (Aib at 2, 13, 20, 42; K28 side chain carries C20DA-gGlu-gGlu-gGlu-gGlu-gGlu-gGlu-eLys; C-terminal amide) [Compound 213]", "> 100 nM"),
    ("Y[Aib]EGTFTSDYSI[Aib]LEKQAQ[Aib]AFVEWLIKGGPSSGASLRHYYNW[dD]TRQRY-NH2 (not fully specified (residue 28); also: TFA salt) [Compound 204]", "> 99.9 nM"),
    ("YXEGTFTSDYSIXLEKQAQXAFVQWLIKGGPSEGASLRHYYNWLTRXRY (Aib at 2, 13, 20; bHGln (beta-homo-L-glutamine) at 47; K28 side chain carries C20DA-gGlu-gGlu-gGlu-gGlu-gGlu-gGlu-eLys; C-terminal amide) [Compound 186]", "> 99.9 nM"),
]
